Please provide measured binding affinity relative to recombinant TNF-α for the entries that follow.
Molecular target: T1, TNF-R2 (a protein having the amino acid sequence, Accession No. M55994 registered at GENBANK) (UniProt P20333 23-257, limits assumed)
T1 construct: also called TNF receptor with 75 kilo daltons
T1 sequence (looked up): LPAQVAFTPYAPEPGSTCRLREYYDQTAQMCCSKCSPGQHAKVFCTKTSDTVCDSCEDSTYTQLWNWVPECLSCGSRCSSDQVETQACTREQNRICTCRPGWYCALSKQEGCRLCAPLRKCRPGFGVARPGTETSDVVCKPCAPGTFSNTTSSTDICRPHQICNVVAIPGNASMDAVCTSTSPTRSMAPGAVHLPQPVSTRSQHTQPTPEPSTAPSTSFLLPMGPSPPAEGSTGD
Experiment: SPR (BIACORE 2000), receptor on sensor tip; grade 1 = 0.001 to 0.1 time that of recombinant TNF-α

Please supply the value of reported binding affinity relative to recombinant TNF-α for the item TNF mutant protein of clone No. 3 (ligand, Mutant of lysine-replaced TNF, made in E. coli) VRSSSRTPSDMPVAHVVANPQAEGQLQWLNSDANALLANGVELRDNQLVVPSEGLYLIYSQVLFSGQGCPSTHVLLTHTISRIAVSYQTPVNLLSAIRSPCQRETPEGAEANPWYEPIYLGGVFQLEPGDRLSAEINRPDYLDFAARGQVYFGIIAL
0.001 to 0.1 fold

Please supply the value of reported binding affinity relative to recombinant TNF-α for the item TNF mutant protein of clone No. 7 (ligand, Mutant of lysine-replaced TNF, made in E. coli) VRSSSRTPSDMPVAHVVANPQAEGQLQWHNNTANALLANGVELRDNQLVVPSEGLYLIYSQVLFSGQGCPSTHVLLTHTISRIAVSYQTPVNLLSAIRSPCQRETPEGAEANPWYEPIYLGGVFQLEPGDRLSAEINRPDYLDFDSNGQVYFGIIAL
0.001 to 0.1 fold
